Examples of molecules with documented pIC50 follow.
# Test system: 885724-159-R-J1-PDC complex spheroid viability;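 also: spheroids exposed to agents for seven days before readout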
# experimentalDetails: Anticancer human tumor 885724-159-R-J1-PDC patient-derived pancreatic adenocarcinoma cell line growth inhibition [GQUAD]
# measurementSetup: curve of first compound; second compound 3.16 µM
Please express pIC50 as -log10 of the molar concentration.

- molecule: "COc1cccc2c1C(=O)c1c(O)c3c(c(O)c1C2=O)CC(O)(C(=O)CO)CC3OC1CC(N)C(O)C(C)O1 (stereo not drawn) + CN(C)c1ccc(Nc2c3ccc(NC(=O)CCN4CCCC4)cc3nc3cc(NC(=O)CCN4CCCC4)ccc23)cc1"
  pIC50: 5.79

Param item = CC(C)n1c(=O)n(C)c2cnc3cc(F)c(-c4ccc(OCCCN5CCCCC5)nc4)cc3c21 + Cc1[nH]c2ccc(F)cc2c1-c1nc2c3cccnc3c3ncccc3c2[nH]1 ; retrieve measured pIC50.
6.88

Item CC1COCCN1c1cc(C2(S(C)(=N)=O)CC2)nc(-c2ccnc3[nH]ccc23)n1 (stereo not drawn) + Cc1[nH]c2ccc(F)cc2c1-c1nc2c3cccnc3c3ncccc3c2[nH]1 has what recorded pIC50?
6.86

Reported pIC50 for CCc1c2c(nc3ccc(O)cc13)-c1cc3c(c(=O)n1C2)COC(=O)[C@]3(O)CC + CN(C)c1ccc(Nc2c3ccc(NC(=O)CCN4CCCC4)cc3nc3cc(NC(=O)CCN4CCCC4)ccc23)cc1 : what is it?
7.66
